tested on: KM12; assay: NCI tumour cell line growth inhibition, 48 h
The source made the active and inactive calls. Cut-off read from the data, not from the text of the source: active = GI50 up to about 1.1 µM and inactive = higher.
Provide the recorded GI50 for the entries that follow.

CC1=CC(=O)NP(=O)(Oc2ccc(C)cc2)N1 (stereo unspecified)	> 100 µM (inactive)
CCOc1ccc(NCC(=O)N2CC(=O)Nc3ccccc32)cc1	> 100 µM (inactive)
Cc1cccc2c1[nH]c1[nH]c(=O)[nH]c(=O)c12	> 100 µM (inactive)

Batch: GI50 for all items listed.
1. O=C(O)CNc1c2ccccc2nc2ccccc12
2. COc1cccc(C2c3cc4c(cc3OC(N3CCCC3)C2c2ccccc2)OCO4)c1O (stereo unspecified)
3. CCN(CC)CSc1nc2ccccc2s1
4. CC(=O)Nc1c(Nc2ccccc2)[nH]c(C)nc1=S

> 100 µM (inactive)
2.76 µM (inactive)
> 100 µM (inactive)
> 100 µM (inactive)
